testProtocol: qHTS profiling for inhibitors of Plasmodium falciparum proliferation (AID 504749);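 also: 0% = DMSO vehicle and full inhibition = artemisinin control; nearly all actives have a fitted effect of over 60% in size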
particulars: P. falciparum in erythrocytes, SYBR Green DNA, 72 h; at 28.7 µM (top of the series); parasite line B
Records with an inconclusive call do not appear.
Parameter activity, negative = inhibition: see the listing below.
Your answer should be a plain number; it is taken to be in %.

NC(N)=O	-2.3
CCCCCCCCCCCCOCCCN	8.54
O=P(O)(O)O	16.4
CCOC(=O)[C@@H](N)CS	16.4
COc1cc(C)c(/C=C/C(C)=C/C=C/C(C)=C/C(=O)O)c(C)c1C	-0.604
O=C1c2ccccc2C(=O)c2c1ccc(O)c2O	-3.93
CC1=CC(=O)NS(=O)(=O)O1	6.07
C[C@]12CC[C@@H]3c4ccc(OC(=O)c5ccccc5)cc4CC[C@H]3[C@@H]1CC[C@@H]2O	5.42
CC(=O)Nc1ccc(OC(=O)c2ccccc2O)cc1	13.7
CCc1ccc(S(=O)(=O)O)cc1	4.58

// recorded activity, negative = inhibition for O=C(NCCNCC(O)COc1ccc(O)cc1)N1CCOCC1 (stereo unspecified) : 8.21

// recorded activity, negative = inhibition for OCc1ccccc1 : -27.8

// recorded activity, negative = inhibition for O=C(O)CCCC/C=C(\c1ccccc1)c1cccnc1 : 8.41

// recorded activity, negative = inhibition for CCCCCCCCCCCCCCCCCC(=O)OCC(C)O (stereo unspecified) : -12.1

// recorded activity, negative = inhibition for O=[n+]1ccn([O-])c2ccccc21 : 3.55

// recorded activity, negative = inhibition for CCOC(=O)C1=C(COCCN)NC(C)=C(C(=O)OC)C1c1ccccc1Cl (stereo unspecified) : -8.98

// recorded activity, negative = inhibition for CCCCCCCCCC(=O)NO : -16.7

// recorded activity, negative = inhibition for CCCc1ccc(C(=O)O)cc1 : -4.82

// recorded activity, negative = inhibition for O=C(O)CCC/C=C\C[C@@H]1[C@@H](/C=C/[C@@H](O)COc2cccc(Cl)c2)[C@H](O)C[C@@H]1O : -6.6

----------
testProtocol: Cell Viability - SK-N-SH (AID 435);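 also: compound exposure lasted 40 h at 37 °C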
particulars: SK-N-SH neuroblastoma cell viability qHTS
Records with an inconclusive call do not appear. Activity calls are given as the source filed them. Calls come from the whole dose curve.
# output must be one of class 1 (active), class 0 (inactive)

ClC(Cl)Cl	class 0
[O-][N+](=Nc1ccccc1)c1ccccc1	class 0
OC[C@H]1O[C@@H]2O[C@H]3[C@H](O)[C@@H](O)[C@@H](O[C@H]4[C@H](O)[C@@H](O)[C@@H](O[C@H]5[C@H](O)[C@@H](O)[C@@H](O[C@H]6[C@H](O)[C@@H](O)[C@@H](O[C@H]7[C@H](O)[C@@H](O)[C@@H](O[C@H]1[C@H](O)[C@H]2O)O[C@@H]7CO)O[C@@H]6CO)O[C@@H]5CO)O[C@@H]4CO)O[C@@H]3CO	class 0
NCCN	class 0
NC(N)=O	class 0
Cc1ccc(S(=O)(=O)O)cc1C	class 0

Hi team, can someone confirm the assay call for C/C=C/C=C/C(=O)O ? class 0

Hi team, can someone confirm the assay call for CC1=CCC2CC1C2(C)C (configuration not stated) ? class 0

Hi team, can someone confirm the assay call for OCc1ccccc1 ? class 0

----------
testProtocol: Cell Viability - LYMP2-024 (AID 988);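 also: cells exposed to compound for 24 hr at 37 °C; nearly all actives have a fitted effect of over 60% in size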
particulars: LYMP2-024 lymphoblastoid cell viability; series mostly up to 92.2 µM
Records with an inconclusive call do not appear. Activity calls are given as the source filed them. Calls come from the whole dose curve; as a rule, active = well fitted cell-killing curve with a large enough effect; inconclusive = small, poorly fitted or top-dose-only effect; inactive = flat fitted curve, though single readings scatter.
# output must be one of class 1 = active, class 0 = inactive

Below are worked cases with known answers.
NCCN	class 0
C[C@H](CCC(=O)O)[C@H]1CC[C@H]2[C@@H]3CC[C@@H]4C[C@H](O)CC[C@]4(C)[C@H]3C[C@H](O)[C@]12C	class 0
C[C@H]1O[C@@H](O[C@H]2[C@@H](O)C[C@H](O[C@H]3[C@@H](O)C[C@H](O[C@H]4CC[C@@]5(C)[C@H](CC[C@@H]6[C@@H]5C[C@@H](O)[C@]5(C)[C@@H](C7=CC(=O)OC7)CC[C@]65O)C4)O[C@@H]3C)O[C@@H]2C)C[C@H](O)[C@@H]1O	class 1
C/C=C/C=C/C(=O)O	class 0
O=c1n(CC2CO2)c(=O)n(CC2CO2)c(=O)n1CC1CO1 (stereo not given)	class 1
CC(C)(C)CC(C)(C)c1ccc(OCCO)cc1	class 0
OCC(O)CO	class 0
CO/N=C(/C(=O)N[C@@H]1C(=O)N2C(C(=O)O)=C(COC(N)=O)CS[C@H]12)c1ccco1	class 0

Hi team, can someone confirm the assay call for CCCCC ? class 0

Hi team, can someone confirm the assay call for OCc1ccccc1 ? class 0
